assay summary: Toxicity in brine shrimp after 24 hrs
Type: organism-based
stated conditions: artemia, in vivo
property measured: LC50 at 24 h (µg/mL)
Just the number please, in µg/mL, no unit attached.

# compound, LC50 at 24 h [µg/mL]
measured = [
    ("CC(=O)O[C@H]1C(=O)[C@@]2(C)[C@H]([C@H](OC(=O)c3ccccc3)[C@]3(O)C[C@H](OC(=O)[C@H](O)[C@@H](NC(=O)c4ccccc4)c4ccccc4)C(C)=C1C3(C)C)[C@]1(OC(C)=O)CO[C@@H]1C[C@@H]2O [PACLITAXEL]", 0.28),
    ("C/C=C(\\C)C(=O)N[C@@H](c1ccccc1)[C@@H](O)C(=O)O[C@H]1C[C@@]2(O)[C@@H](OC(=O)c3ccccc3)[C@@H]3[C@]4(OC(C)=O)CO[C@@H]4C[C@H](O)[C@@]3(C)C(=O)[C@H](OC(C)=O)C(=C1C)C2(C)C [CEPHALOMANNINE]", 0.81),
]

Query: Any idea what its LC50 at 24 h is? The compound is C=C1[C@@H](O)C[C@H](OC(C)=O)[C@@]2(COC(=O)c3ccccc3)[C@@H](OC(C)=O)[C@H](OC(C)=O)[C@@]3(O)[C@]4(C)OC[C@]3(C)C(CC4=O)[C@@H](OC(C)=O)[C@H]12 [TAXININE M]
Result: 620
